Would you kindly list TGI for each of these compounds?
System: OVCAR-5 ovarian
procedure-details: NCI tumour cell line growth inhibition, 48 h

The cases that follow already have their TGI on record.
- compound: "Cc1nc(-c2cccnc2)sc1C(=O)CC(=O)C(=O)Nc1cccc(NC(=O)C(=O)CC(=O)c2sc(-c3cccnc3)nc2C)n1"
  test-system: "OVCAR-5 ovarian"
  TGI: "> 100 µM"
- compound: "O=C1NN(C(=O)c2ccccc2)C(c2ccc(Cl)c(Cl)c2)=C/C1=C\\c1ccccc1[N+](=O)[O-]"
  test-system: "OVCAR-5 ovarian"
  TGI: "> 6.75 µM"
- compound: "NC(CCl)=NCC12CC3CC(CC(C3)C1)C2"
  test-system: "OVCAR-5 ovarian"
  TGI: "11.1 µM"
- compound: "CC(=O)OCCCCn1nncc1Cn1ccc(=O)n(Cc2cnnn2CCCCOC(C)=O)c1=O"
  test-system: "OVCAR-5 ovarian"
  TGI: "> 100 µM"
- compound: "Cc1c(C)c(S(=O)(=O)N(CCCN)OCCCN)c(C)c2c1OC(C)(C)CC2"
  test-system: "OVCAR-5 ovarian"
  TGI: "25.8 µM"
- compound: "N#CC12CC(C=O)=C(N)C1(C#N)CC(C=O)=C2N (centres undefined)"
  test-system: "OVCAR-5 ovarian"
  TGI: "> 100 µM"
- compound: "CC(=O)/C(=C/N1CC(=O)NC1=S)C(=O)Nc1ccccc1C"
  test-system: "OVCAR-5 ovarian"
  TGI: "> 100 µM"
- compound: "CCc1cc2c(cc1C(=O)CCC(=O)O)CC1(C2)Cc2cc(CC)c(C(=O)CCC(=O)O)cc2C1"
  test-system: "OVCAR-5 ovarian"
  TGI: "> 100 µM"

Please look at the following compound next.
I'd like to know its TGI. The compound in question is NC1=C(O)/C(=N/NS(=O)(=O)c2ccccc2)C(c2ccc3c(c2)OCO3)O1 (centres undefined) > 100 µM

---

Test system: NCI-H460 lung
procedure-details: NCI tumour cell line growth inhibition, 48 h
measured-parameter: TGI

The cases that follow already have their TGI on record.
- compound: "[Mn+3].[O-][Cl+3]([O-])([O-])O.[O-]c1ccccc1C=NCCN1CC1.[O-]c1ccccc1C=NCCN1CC1"
  TGI: "> 100 µM"
- compound: "CC1=NC(C)=C(/C(C)=N/NC(=O)c2ccccc2O)C(C)/C1=C(/C)NNC(=O)c1ccccc1O (configuration not stated)"
  TGI: "66.6 µM"
- compound: "CC1(C)C(CBr)=[N+]([O-])C(C)(C)N1O"
  TGI: "> 10 µM"

For each entry beneath this line, provide reported TGI.
1. C[n+]1c2ccccc2n2c3ccccc3c(NCc3ccco3)c(C#N)c21
2. CCCC(=O)Oc1c2ccsc2c(OC(=O)CCC)c2ccsc12
3. CC(C)(Oc1ccc2c(=O)cc(-c3ccc(Cl)cc3)oc2c1)C(=O)Nc1c(Cl)cccc1Cl
4. NS(=O)(=O)c1ccc(N=Nc2ccc(O)cc2)cc1
5. O=C1NN(C(=O)c2ccccc2)C(c2ccc(Cl)c(Cl)c2)=C/C1=C\c1ccccc1[N+](=O)[O-]

1. 4.19 µM
2. 3.12 µM
3. > 100 µM
4. > 100 µM
5. 5.2 µM

---

Would you kindly list TGI for each of these compounds?
System: MDA-MB-435
procedure-details: NCI tumour cell line growth inhibition, 48 h

The cases that follow already have their TGI on record.
- compound: "O=C1/C(=C/c2ccc([N+](=O)[O-])cc2)CCCc2ccccc21"
  test-result: "> 100 µM"
- compound: "OCC#Cc1ccccc1C#Cc1ccc(C#Cc2ccccc2C#CCO)cc1"
  test-result: "> 100 µM"
- compound: "Cc1ccc(C(=O)C2C=C(c3ccc(C)cc3)SC3C=CCC32)cc1 (stereo unspecified)"
  test-result: "30 µM"
- compound: "CC(C)(C)c1cc[n+](C[n+]2ccc(C(C)(C)C)cc2)cc1"
  test-result: "> 100 µM"
- compound: "CCOP(=O)(OCC)/C(=C\\n1ccc(=O)[nH]c1=S)C(=O)OC"
  test-result: "> 100 µM"
- compound: "CC1(C)N=C(N)N=C(N)N1c1cccc(CCCCc2ccc(Cl)c(S(=O)(=O)F)c2)c1"
  test-result: "15.7 µM"
- compound: "COC1=CC(c2ccc[nH]2)=N/C1=C\\c1[nH]c(C)c(CC(=O)NCc2ccccc2)c1C"
  test-result: "3.23 µM"
- compound: "C/C(=N\\N)C(CN1CCOCC1)C(c1ccccc1)c1c(O)c2ccccc2oc1=O (stereo unspecified)"
  test-result: "> 100 µM"
- compound: "O=C1NCN(c2ccccc2)C12CCN(CCCN1CCN(CCOC(c3ccccc3)c3ccccc3)CC1)CC2"
  test-result: "2.46 µM"
- compound: "CCOC(=O)C1=NN(c2ccc(C)cc2)C2(c3ccccc3)C=C(c3ccccc3)N(C)CCN12 (stereo unspecified)"
  test-result: "> 100 µM"

I'd like to know its TGI. The compound in question is COc1ccc(C/C=C(\C)CCO)cc1 > 100 µM

Recorded values, source PubChem BioAssay (NCI).
